Catalogue of log10 of IC50 values
- Experimental System: hK-RasG12C - hSOS1 interaction (Homo sapiens, UniProt Q07889)
- Construct: hSOS1 (amino acid 564-1049); made in house; host or cells: E. coli BL21 (DE3)
- Sequence (Q07889 with tags, fused parts or gaps): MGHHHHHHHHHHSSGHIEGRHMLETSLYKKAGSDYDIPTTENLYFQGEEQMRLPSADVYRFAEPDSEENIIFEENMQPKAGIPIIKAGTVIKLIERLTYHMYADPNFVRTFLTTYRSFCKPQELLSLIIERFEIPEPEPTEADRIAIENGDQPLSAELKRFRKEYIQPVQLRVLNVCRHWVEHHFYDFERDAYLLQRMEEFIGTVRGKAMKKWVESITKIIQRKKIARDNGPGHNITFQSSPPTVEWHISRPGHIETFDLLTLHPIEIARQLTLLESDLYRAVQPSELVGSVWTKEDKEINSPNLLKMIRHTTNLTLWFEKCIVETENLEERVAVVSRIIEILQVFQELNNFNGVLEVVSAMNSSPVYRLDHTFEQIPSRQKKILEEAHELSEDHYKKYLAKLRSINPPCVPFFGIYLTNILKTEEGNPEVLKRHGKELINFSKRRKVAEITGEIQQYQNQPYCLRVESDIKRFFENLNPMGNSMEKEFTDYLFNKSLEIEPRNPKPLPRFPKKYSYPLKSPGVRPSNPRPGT
- Method: Biochemical Assay 1: hK-RasG12C interaction assay with hSOS1 (HTRF)
- Format: binding
- Condition Parameters: values expressed as IC50
For clarity, the numbers are log10 values of IC50 expressed in nM.

Tell us which log10 of IC50 value is on record for Cc1nc(NC(C)c2ccc(-c3ccccc3CN(C)C)s2)c2cc(OCCO)ncc2n1 (centres unmarked)
1.74

Tell us which log10 of IC50 value is on record for Cc1nc(NC(C)c2ccc(-c3ccccc3CN(C)C)s2)c2cc(N3CC(NC(=O)Nc4ccccc4)C3)ncc2n1 (centres unmarked)
1.88

Tell us which log10 of IC50 value is on record for COc1cc2c(N[C@H](C)c3ccc(F)c(Cl)c3)nc(C)nc2cn1
3.74

Tell us which log10 of IC50 value is on record for Cc1nc(N[C@H](C)c2cccc(Br)c2)c2nc(N3CCOCC3)ncc2n1
3.21

Tell us which log10 of IC50 value is on record for Cc1nc(NC(C)c2ccc(-c3ccccc3CN(C)C)s2)c2cc(Oc3cccc(O)c3)ncc2n1 (centres unmarked)
2.31

Tell us which log10 of IC50 value is on record for Cc1nc(NC(C)c2ccc(-c3ccccc3CN(C)C)s2)c2cc(NCCn3cccn3)ncc2n1 (centres unmarked)
1.70

Tell us which log10 of IC50 value is on record for Cc1nc(NC(C)c2ccc(-c3ccccc3CN(C)C)s2)c2cc(N3CC(N)C3)ncc2n1 (centres unmarked)
1.53

Tell us which log10 of IC50 value is on record for Cc1nc(NC(C)c2ccc(-c3ccccc3CN(C)C)s2)c2cc(NCC3CCNC(=O)C3)ncc2n1 (centres unmarked)
2.08
